I'd be grateful if you could share measured MIC for these entries.
- Tested on: B. fragilis WS-1
- assay: Anti-anaerobic activity, microtitre plate broth dilution, strain E
- Assay type: cell-based
- applied-conditions: Bacteroides fragilis, WS1, 48 h, 48 hours at 37° C., read-out: MIC (Minimum Inhibitory Concentration)
Where a name gives a salt, the structure may show the parent alone.
Write the figure, then the unit, nothing else.

The examples below pair each entry with its known result.
Cc1ccc(C(Cn2ccnc2)C(=O)c2ccc(Cl)cc2Cl)cc1 (stereo not drawn) [Example 15] :: 0.8 µg/mL
CC(C)(C)C(Cn1ccnc1)C(=O)c1ccc(Cl)cc1Cl (stereo not drawn) [Example 22] :: 100 µg/mL
CSc1nccn1CC(C(=O)c1ccc(Cl)cc1Cl)c1ccccc1 (stereo not drawn) [Example 24] :: 50 µg/mL
O=C(c1ccc(Cl)cc1Cl)C(Cn1cncn1)c1ccccc1 (stereo not drawn) [Example 23] :: 0.8 µg/mL

Parameters: items (list). Returns: MIC for each item.
1. O=C(c1cc(Cl)cc(Cl)c1)C(Cn1ccnc1)c1ccccc1 (stereo not drawn) [Example 18]
2. Cc1ccc(C(Cn2cncn2)C(=O)c2ccc(Cl)cc2Cl)cc1 (stereo not drawn) [Example 16, hydrochloride]
3. O=C(c1ccccn1)C(Cn1ccnc1)c1ccccc1 (stereo not drawn) [Example 21]
4. CCCCCCCC(=O)C(Cn1ccnc1)c1ccc(C)cc1 (stereo not drawn) [Example 17, hydrochloride]
5. O=C(Cc1ccccc1)C(Cn1ccnc1)c1ccccc1 (stereo not drawn) [Example 25]
6. O=C(c1cccnc1)C(Cn1cncn1)c1ccccc1 (stereo not drawn) [Example 20]
7. O=C(c1ccc(Cl)cc1Cl)C(Cn1ccnc1)c1ccccc1 (stereo not drawn) [Example 2]

Result:
1.5 µg/mL
1.5 µg/mL
25 µg/mL
12.5 µg/mL
25 µg/mL
100 µg/mL
0.8 µg/mL

Form field MIC for item O=C(c1cccnc1)C(Cn1ccnc1)c1ccccc1 (stereo not drawn) [Example 19] on B. fragilis WS-1: 6.2 µg/mL

----------
- Test system: Fusobacterium necrophorum ATCC 11295
- assay: Anti-anaerobic activity, additional strains, strain J
- Type: cell-based
- applied-conditions: ATCC11295, strain J, read-out: MIC
measurement-kind: MIC (µg/mL)
Give bare numbers, in µg/mL.

Reference set, count: 3
O=C(c1cc(Cl)cc(Cl)c1)C(Cn1ccnc1)c1ccccc1 (stereo not shown) :: 6.2
Cc1ncc([N+](=O)[O-])n1CCO [Metronidazole, reference compound] :: 10
Cc1ccc(C(Cn2ccnc2)C(=O)c2ccc(Cl)cc2Cl)cc1 (stereo not shown) :: 0.3

Next:
Query O=C(Cc1ccccc1)C(Cn1ccnc1)c1ccccc1 (stereo not shown) on Fusobacterium necrophorum ATCC 11295; MIC returned: 100

----------
- System: B. fragilis MZ-R ATCC 11295
- assay: Anti-anaerobic activity, microtitre plate broth dilution, strain D
- Format: cell-based, Bacteroides fragilis
- applied-conditions: Bacteroides fragilis, ATCC11295, 48 h, strain D; 99.9% reduction in viable count, 48 hours; read-out: MBC (Minimum Bactericidal Concentration)
Where a name gives a salt, the structure may show the parent alone.
measurement-kind: MBC (µg/mL)
Answers are plain numbers, in µg/mL.

O=C(c1cc(Cl)cc(Cl)c1)C(Cn1ccnc1)c1ccccc1 (stereo not drawn) :: 1.5
O=C(c1ccccn1)C(Cn1ccnc1)c1ccccc1 (stereo not drawn) :: 6.2
Cc1ccc(C(Cn2cncn2)C(=O)c2ccc(Cl)cc2Cl)cc1 (stereo not drawn) [Example 16, hydrochloride] :: 15
O=C(c1ccc(Cl)cc1Cl)C(Cn1ccnc1)c1ccccc1 (stereo not drawn) :: 0.8

For each of the compounds below, state MBC.
1. O=C(c1ccc(Cl)cc1Cl)C(Cn1cncn1)c1ccccc1 (stereo not drawn)
2. Cc1ccc(C(Cn2ccnc2)C(=O)c2ccc(Cl)cc2Cl)cc1 (stereo not drawn)
3. CSc1nccn1CC(C(=O)c1ccc(Cl)cc1Cl)c1ccccc1 (stereo not drawn)
4. O=C(c1cccnc1)C(Cn1ccnc1)c1ccccc1 (stereo not drawn)

Result:
[0.8, 0.8, 100, 50]

In plain terms, CCCCCCCC(=O)C(Cn1ccnc1)c1ccc(C)cc1 (stereo not drawn) [Example 17, hydrochloride] has a documented MBC of 100

----------
Can you tell me MIC for the items I'm about to list?
- System: B. fragilis MZ-R ATCC 11295
- assay: Anti-anaerobic activity, microtitre plate broth dilution, strain D
- Assay type: cell-based, Bacteroides fragilis
- applied-conditions: Bacteroides fragilis, ATCC11295, 48 h, strain D; 48 hours at 37° C., anaerobic; read-out: MIC (Minimum Inhibitory Concentration)
Counter-ions that a name gives are not always drawn.
Answers are plain numbers, in mg/L.

These solved cases illustrate the format of a correct answer.
CC(C)(C)C(Cn1ccnc1)C(=O)c1ccc(Cl)cc1Cl (stereo not drawn) :: 50
Cc1ccc(C(Cn2cncn2)C(=O)c2ccc(Cl)cc2Cl)cc1 (stereo not drawn) [Example 16, hydrochloride] :: 0.8

Fill in MIC for each of the 4 compounds listed.
1. O=C(c1ccc(Cl)cc1Cl)C(Cn1cncn1)c1ccccc1 (stereo not drawn)
2. O=C(c1ccccn1)C(Cn1ccnc1)c1ccccc1 (stereo not drawn)
3. O=C(c1cccnc1)C(Cn1cncn1)c1ccccc1 (stereo not drawn)
4. Cc1ccc(C(Cn2ccnc2)C(=O)c2ccc(Cl)cc2Cl)cc1 (stereo not drawn)

Result:
[0.8, 6.2, 100, 0.8]

Below are 6 compounds. Give each one its MIC.
1. CCCCCCCC(=O)C(Cn1ccnc1)c1ccc(C)cc1 (stereo not drawn) [Example 17, hydrochloride]
2. CSc1nccn1CC(C(=O)c1ccc(Cl)cc1Cl)c1ccccc1 (stereo not drawn)
3. O=C(c1ccc(Cl)cc1Cl)C(Cn1ccnc1)c1ccccc1 (stereo not drawn)
4. O=C(c1cc(Cl)cc(Cl)c1)C(Cn1ccnc1)c1ccccc1 (stereo not drawn)
5. O=C(c1cccnc1)C(Cn1ccnc1)c1ccccc1 (stereo not drawn)
6. O=C(Cc1ccccc1)C(Cn1ccnc1)c1ccccc1 (stereo not drawn)

Result:
3.1
25
0.8
0.8
12.5
12.5

----------
- System: B. fragilis NCTC 10581
- assay: Anti-anaerobic activity, microtitre plate broth dilution, strain A
- Assay type: cell-based, Bacteroides fragilis
- applied-conditions: Bacteroides fragilis, NCTC10581, 48 h, strain A; 99.9% reduction in viable count, 48 hours; read-out: MBC (Minimum Bactericidal Concentration)
Where a name gives a salt, the structure may show the parent alone.
measurement-kind: log10 of MBC (log10 of the value in µg/mL)
Note: values are log10 of MBC expressed in µg/mL.

Working through the 2 molecules below one at a time, give log10 of MBC for each.
1. Cc1ccc(C(Cn2cncn2)C(=O)c2ccc(Cl)cc2Cl)cc1 (stereo not shown) [Example 16, hydrochloride]
2. O=C(c1ccc(Cl)cc1Cl)C(Cn1ccnc1)c1ccccc1 (stereo not shown) [Example 2]

Result:
1. 0.49
2. -0.10

I have 7 molecules here; please give me log10 of MBC for each one.
1. O=C(c1ccccn1)C(Cn1ccnc1)c1ccccc1 (stereo not shown) [Example 21]
2. O=C(c1ccc(Cl)cc1Cl)C(Cn1cncn1)c1ccccc1 (stereo not shown) [Example 23]
3. Cc1ncc([N+](=O)[O-])n1CCO [Metronidazole, reference compound]
4. CSc1nccn1CC(C(=O)c1ccc(Cl)cc1Cl)c1ccccc1 (stereo not shown) [Example 24]
5. CCCCCCCC(=O)C(Cn1ccnc1)c1ccc(C)cc1 (stereo not shown) [Example 17, hydrochloride]
6. O=C(c1cc(Cl)cc(Cl)c1)C(Cn1ccnc1)c1ccccc1 (stereo not shown) [Example 18]
7. Cc1ccc(C(Cn2ccnc2)C(=O)c2ccc(Cl)cc2Cl)cc1 (stereo not shown) [Example 15]

Result:
1.10
-0.10
-0.10
2.00
2.00
0.18
-0.10

# log10 of MBC of O=C(c1cccnc1)C(Cn1ccnc1)c1ccccc1 (stereo not shown) [Example 19] = 1.70
